Please provide measured abundance fitness for the entries that follow.
B1: 3'-5' exoribonuclease 1, residues 65 to 114; numbered along this chain, Q8IV48 (parent)
chain: VYKEIAITNGCINRMSKEELRAKLSEFKLETRGVKDVLKKRLKNYYKKQK

Variants of: B1
Assay overview: abundance fitness (aPCA) (normalised: wild type 0, dead -1); higher = more abundant; growth selection in yeast, the domain comes from the species named
Experimental context: Homo sapiens
One number for each entry.

A selection of reference data follows.
K17F
-0.646
L20D
-1
E26L
-0.22
L20F
-0.512
K40H
-0.576

Give abundance fitness for each listed item.
1. K3Q
2. K28Q

Response:
1: -0.035; 2: -0.124

Give abundance fitness for each listed item.
1. L20K
2. N9H
3. I7L
4. Y2R
5. K39L
6. N13A
7. D36H
8. I7W

Response:
1: -0.956; 2: -0.066; 3: 0.019; 4: -0.072; 5: -0.632; 6: -0.487; 7: 0; 8: -0.287

Give abundance fitness for each listed item.
1. K3H
2. I12E
3. S25K
4. K40M

Response:
1: -0.055; 2: -0.818; 3: 0.004; 4: -0.634

Give abundance fitness for each listed item.
1. I12P
2. L38K
3. C11W
4. E19Q

Response:
1. -0.716
2. -0.828
3. -0.147
4. 0.007
